# Tested On: P2X7 receptor (Homo sapiens, UniProt Q99572)
# Construct: endogenous in cells
# Test Method Notes: Inhibition of ATP-stimulated IL-1β release from LPS-activated blood monocytes (P2X7 antagonist activity, ELISA readout)
# Type: cell-based
# Assay Setup: monocytes from normal volunteers, 10 ng/ml LPS 2 h, compound 30 min, 2 mM ATP 3 h, IL-1β by ELISA, triplicate wells; read-out: IC50 (inhibit 50% of the stimulation of the release of IL-1β from monocytes by ATP)
Assay Metric: IC50 (nM)

{"Compound": "CC(C)(O)Cn1ccc(-c2ccc(Cl)c(C(=O)NCC3(O)CCCCCC3)c2)n1", "Assay Metric": "IC50", "Reading Unit": "nM", "Meas Value": 30}

(I) Cc1cc(-c2ccc(Cl)c(C(=O)NCC3(O)CCCC(C)(C)C3)c2)on1 (centres unmarked)
(II) Cn1ccc(-c2ccc(Cl)c(C(=O)NCC3(O)CCCCCC3)c2)n1
Query string: // max by IC50 over [ I , II ] # respond with the chosen item's label
Result string: II

* * *

# Tested On: P2X7 receptor (Homo sapiens)
# Construct: endogenous in cells
# Sequence (Q99572 1-595): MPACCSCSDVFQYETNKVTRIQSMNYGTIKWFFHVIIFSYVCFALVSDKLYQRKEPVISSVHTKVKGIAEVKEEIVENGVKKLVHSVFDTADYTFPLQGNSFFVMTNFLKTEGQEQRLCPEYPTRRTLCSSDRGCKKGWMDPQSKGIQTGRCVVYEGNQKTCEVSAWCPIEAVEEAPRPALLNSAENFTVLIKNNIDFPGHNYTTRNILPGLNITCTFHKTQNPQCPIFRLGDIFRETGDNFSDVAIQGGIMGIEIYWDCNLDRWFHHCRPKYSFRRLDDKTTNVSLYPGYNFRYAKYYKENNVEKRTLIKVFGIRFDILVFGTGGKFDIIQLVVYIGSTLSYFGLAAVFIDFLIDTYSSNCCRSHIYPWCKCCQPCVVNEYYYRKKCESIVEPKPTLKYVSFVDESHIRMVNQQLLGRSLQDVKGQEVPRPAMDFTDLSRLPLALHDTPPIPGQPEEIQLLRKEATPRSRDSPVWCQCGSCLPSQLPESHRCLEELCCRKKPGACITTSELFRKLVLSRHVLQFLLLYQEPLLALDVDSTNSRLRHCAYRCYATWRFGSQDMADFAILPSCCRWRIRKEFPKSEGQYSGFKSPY
# Test Method Notes: Inhibition of ATP-stimulated IL-1β release from LPS-activated blood monocytes (P2X7 antagonist activity, ELISA readout)
# Format: cell-based
# Assay Setup: monocytes from normal volunteers, 10 ng/ml LPS 2 h, compound 30 min, 2 mM ATP 3 h, IL-1β by ELISA, triplicate wells; read-out: IC50 (inhibit 50% of the stimulation of the release of IL-1β from monocytes by ATP)
Assay Metric: IC50 (nM)

{"Molecule": "O=C(NCCc1ccccc1Cl)c1cc(-c2cn[nH]c2)ccc1Cl [Example 10]", "Assay Metric": "IC50", "Meas Value": 800}
{"Molecule": "O=C(NCC1(O)CCCCCC1)c1cc(-c2cc(C(F)(F)F)n[nH]2)ccc1Cl [Example 23]", "Assay Metric": "IC50", "Meas Value": 200}
{"Molecule": "Cc1cc(-c2ccc(Cl)c(C(=O)NCC3(O)CCCCCC3)c2)nn1CC(=O)N1C[C@H](O)[C@@H](O)C1 [Example 53]", "Assay Metric": "IC50", "Meas Value": 15.5}
{"Molecule": "CCc1cc(-c2ccc(Cl)c(C(=O)NCC3(O)CCCCCC3)c2)[nH]n1 [Example 15]", "Assay Metric": "IC50", "Meas Value": 23}

(1) Cc1cc(-c2ccc(Cl)c(C(=O)NCC3(O)CCCCCC3)c2)nn1CC(=O)NC(CO)CO [Example 50]
(2) CCc1cc(-c2ccc(Cl)c(C(=O)NCCc3ccccc3Cl)c2)[nH]n1 [Example 16]
(3) Cc1cc(-c2ccc(Cl)c(C(=O)NCC3(O)CCCCCC3)c2)n(C[C@@H](O)CO)n1 [Example 43]
(4) Cc1cc(-c2ccc(Cl)c(C(=O)NCC3(O)CCCCCC3)c2)nn1CC(=O)Nc1ncccn1 [Example 52]
Query string: Output the entries ranked by IC50 from maximum down to minimum. Your answer should be the labels, listed in the requested order.
Result string: 2, 3, 4, 1

* * *

# Tested On: P2X7 receptor (Homo sapiens)
# Construct: endogenous in cells
# Test Method Notes: Inhibition of ATP-stimulated IL-1β release from LPS-activated blood monocytes (P2X7 antagonist activity, ELISA readout)
# Format: cell-based
# Assay Setup: monocytes from normal volunteers, 10 ng/ml LPS 2 h, compound 30 min, 2 mM ATP 3 h, IL-1β by ELISA, triplicate wells; read-out: IC50 (inhibit 50% of the stimulation of the release of IL-1β from monocytes by ATP)
# Experimental: In like manner, the compounds of the invention can be tested for antagonist activity at the P2X7 receptor using the cytokine IL-1β as the readout. […] The cultured monocytes can be activated with 10 ng/ml LPS (E. coli serotype 055:B5; Sigma Chemicals, St. Louis, Mo.). […] Media were harvested and clarified by centrifugation, and their IL-1[…] content was determined by ELISA (R&D Systems; Minneapolis, Minn.). […]
pIC50: −log10 of the molar value.
Assay Metric: pIC50

(1) NC(=O)Cn1ccc(-c2ccc(Cl)c(C(=O)NCC3(O)CCCCCC3)c2)n1
(2) COc1ccc(-c2ccc(Cl)c(C(=O)NCCc3ccccc3Cl)c2)nn1
Query string: Please indicate which entry, 1 or 2 , has the lower recorded pIC50 value. # respond with the chosen item's label
Result string: 2
(2: 6.28, 1: 6.92)

(1) CCC(CO)NC(=O)Cn1nc(-c2ccc(Cl)c(C(=O)NCC3(O)CCCCCC3)c2)cc1C (stereo not shown)
(2) Cc1cc(-c2ccc(Cl)c(C(=O)NCC3(O)CCCCCC3)c2)n(C[C@@H](O)CN)n1
(3) Cc1cc(-c2ccc(Cl)c(C(=O)NCC3(O)CCCCCC3)c2)nn1CC#N
Query string: With regard to pIC50, arrange the entries in ascending order, please. Your answer should be the labels, listed in the requested order.
Result string: 2, 3, 1
(2: 6.44, 3: 7.29, 1: 7.98)

(a) COC[C@H](O)Cn1nc(-c2ccc(Cl)c(C(=O)NCC3(O)CCCCCC3)c2)cc1C (stereo in doubt)
(b) NCCn1ccc(-c2ccc(Cl)c(C(=O)NCC3(O)CCCCCC3)c2)n1
Query string: Please indicate which entry, a or b , has the lower recorded pIC50 value. # respond with the chosen item's label
Result string: b

(1) Cc1ccc(-c2ccc(Cl)c(C(=O)NCCc3ccccc3Cl)c2)nc1
(2) O=C(NCC1(O)CCCCCC1)c1cc(-c2ccn(CCO)n2)ccc1Cl
(3) CNC(=O)CNC(=O)Cn1nc(-c2ccc(Cl)c(C(=O)NCC3(O)CCCCCC3)c2)cc1C
(4) Cc1cc(-c2ccc(Cl)c(C(=O)NCC3(O)CCCCCC3)c2)nn1CC(C)(C)O
Query string: Output the entries ranked by pIC50 from maximum down to minimum. Your answer should be the labels, listed in the requested order.
Result string: 3, 4, 2, 1
(3: 8.30, 4: 8.10, 2: 7.51, 1: 5.78)

* * *

# Tested On: P2X7 receptor (Homo sapiens, UniProt Q99572)
# Construct: endogenous in cells
# Test Method Notes: Inhibition of ATP-stimulated IL-1β release from LPS-activated blood monocytes (P2X7 antagonist activity, ELISA readout)
# Type: cell-based
# Assay Setup: monocytes from normal volunteers, 10 ng/ml LPS 2 h, compound 30 min, 2 mM ATP 3 h, IL-1β by ELISA, triplicate wells; read-out: IC50 (inhibit 50% of the stimulation of the release of IL-1β from monocytes by ATP)
pIC50: −log10 of the molar value.
Assay Metric: pIC50

{"Molecule": "Cc1cc(-c2ccc(Cl)c(C(=O)NCC3(O)CCCC(C)(C)C3)c2)[nH]n1 (stereo not shown)", "Meas Value": 8.10}

(A) Cc1cc(-c2ccc(Cl)c(C(=O)NCC3(O)CCCCCC3)c2)nn1CCN
(B) Cc1ccc(C2(CNC(=O)c3cc(-c4ccc(C)nc4)ccc3Cl)CCCCC2)cc1
(C) COc1ccc(Cn2cc(-c3ccc(Cl)c(C(=O)NCCc4ccccc4Cl)c3)cn2)cc1
Query string: With regard to pIC50, arrange the entries in ascending order, please. Your answer should be the labels, listed in the requested order.
Result string: C, B, A

* * *

# Tested On: P2X7 receptor (Homo sapiens, UniProt Q99572)
# Construct: endogenous in cells
# Test Method Notes: Inhibition of ATP-stimulated IL-1β release from LPS-activated blood monocytes (P2X7 antagonist activity, ELISA readout)
# Type: cell-based
Assay Metric: pIC50
In simple prose, pIC50 is minus the logarithm base ten of a concentration in moles per litre.

Query string: Output measured pIC50 for this item: Cc1nc(-c2ccc(Cl)c(C(=O)NCC3(O)CCCCCC3)c2)cs1 [Example 59]
Result string: 6.55
